test system: HCC-2998 colon; test: NCI tumour cell line growth inhibition, 48 h; in the data active = GI50 below about 0.43 µM; inactive = the rest
Outcomes: active, inactive

{"Compound": "Cc1nc(N2CCC3(CC2)CO[C@@H](C)[C@H]3N)c(CO)nc1Sc1ccnc(N)c1Cl", "System": "HCC-2998 colon", "Group": "inactive"}
{"Compound": "COc1cccc(NC(=O)c2sc3nc4c(cc3c2N)C(=O)CCC4)c1", "System": "HCC-2998 colon", "Group": "active"}
{"Compound": "Cc1cc(C)c(Cn2cnc3c(Cl)ncnc32)c(C)c1CCl", "System": "HCC-2998 colon", "Group": "inactive"}
{"Compound": "C=C(OC1C(C)=C2C(C1OC(=O)CCCCCCC)C(C)(OC(C)=O)CC(OC(=O)CCC)C1(O)C2OC(=O)C1(C)O)/C(C)=C/C (configuration not stated)", "System": "HCC-2998 colon", "Group": "active"}
{"Compound": "COc1ccc(/C=N\\Nc2ccc([N+](=O)[O-])cn2)cc1OC", "System": "HCC-2998 colon", "Group": "inactive"}
{"Compound": "O=Cc1ccc(-c2ccc(-c3nc4ccccc4o3)cc2)o1", "System": "HCC-2998 colon", "Group": "inactive"}
{"Compound": "OCC(O)c1nc2ccc3[nH]ncc3c2c2c1CCCC2 (configuration not stated)", "System": "HCC-2998 colon", "Group": "inactive"}

* * *

system: NCI-H226 lung; assay: NCI tumour cell line growth inhibition, 48 h
Measured Property: TGI

{"Molecule": "CC(C)(C)CC(C)(C)NCc1cc(C(C)(C)C)cc(CNC(C)(C)CC(C)(C)C)c1O", "System": "NCI-H226 lung", "Measured Property": "TGI", "Result": "8.89 µM"}
{"Molecule": "COc1cc2cc(C(=O)N3CC(CCl)c4c3cc(N)c3ccccc43)[nH]c2c(OC)c1OC (stereo unspecified)", "System": "NCI-H226 lung", "Measured Property": "TGI", "Result": "1.13 µM"}
{"Molecule": "O=C(O)C(Cl)(c1ccccc1)c1ccccc1", "System": "NCI-H226 lung", "Measured Property": "TGI", "Result": "> 100 µM"}
{"Molecule": "CC(=O)OC1COC(Nc2nc(NCc3ccccc3)n(C)c(=O)c2N=O)C(OC(C)=O)C1OC(C)=O (stereo unspecified)", "System": "NCI-H226 lung", "Measured Property": "TGI", "Result": "> 10 µM"}
{"Molecule": "O=C1C(Cl)C(c2ccccc2O)N1n1cnc2ccccc2c1=O (stereo unspecified)", "System": "NCI-H226 lung", "Measured Property": "TGI", "Result": "> 100 µM"}
{"Molecule": "CCOC(=O)C(C)(C)Oc1ccc(/C=C/C(=O)c2ccc(Cl)cc2)cc1", "System": "NCI-H226 lung", "Measured Property": "TGI", "Result": "70.5 µM"}
{"Molecule": "Cc1c2c(OCCN3CCCCC3)nn(C)c(=O)c2c(C)n1-c1ccccc1", "System": "NCI-H226 lung", "Measured Property": "TGI", "Result": "> 100 µM"}
{"Molecule": "COc1ccc(-c2c3c(n(C4OC(COC(C)=O)C(OC(C)=O)C(OC(C)=O)C4OC(C)=O)c(=S)c2C#N)CC(C)(C)CC3=O)cc1 (stereo unspecified)", "System": "NCI-H226 lung", "Measured Property": "TGI", "Result": "> 100 µM"}
{"Molecule": "Cn1c(=O)c2nc(-c3ccc(Cl)cc3)oc2n(C)c1=O", "System": "NCI-H226 lung", "Measured Property": "TGI", "Result": "> 100 µM"}
{"Molecule": "O=C1CCCCCCCCCCC1CN1CCCCC1 (stereo unspecified)", "System": "NCI-H226 lung", "Measured Property": "TGI", "Result": "82.4 µM"}
{"Molecule": "C=C1C(=O)O[C@@H]2C[C@]3(C)CC[C@]4(C)[C@H](CC[C@@H]5[C@@]6(C)CCC(=O)C(C)(C)[C@@H]6CC[C@]54C)[C@H]3[C@H]12", "System": "NCI-H226 lung", "Measured Property": "TGI", "Result": "38.4 µM"}
{"Molecule": "O=C1C=CC(=O)c2cc(Sc3ccccc3)c(=O)ccc21", "System": "NCI-H226 lung", "Measured Property": "TGI", "Result": "42.9 µM"}
{"Molecule": "c1c[nH]c(C23C4C5C6C4C2C6C53)n1 (stereo unspecified)", "System": "NCI-H226 lung", "Measured Property": "TGI", "Result": "> 100 µM"}
{"Molecule": "O=Cc1cccc2c1Oc1c(cccc1C(=O)O)S2", "System": "NCI-H226 lung", "Measured Property": "TGI", "Result": "> 100 µM"}
{"Molecule": "CCOc1cccc2ccc[n+](CC)c12", "System": "NCI-H226 lung", "Measured Property": "TGI", "Result": "> 100 µM"}
{"Molecule": "O=[N+]([O-])c1cc2c(cc1/C=N/n1c(CO)nc3ccccc31)OCO2", "System": "NCI-H226 lung", "Measured Property": "TGI", "Result": "> 100 µM"}
{"Molecule": "N#Cc1c(-c2ccccc2)c(N=Nc2ccc(Cl)cc2)c(=O)n2c1[nH]c1ccccc12", "System": "NCI-H226 lung", "Measured Property": "TGI", "Result": "> 100 µM"}
{"Molecule": "CCCCCCCCCCCCOCCCOP(=O)([O-])OCC[N+](C)(C)C", "System": "NCI-H226 lung", "Measured Property": "TGI", "Result": "65.8 µM"}
{"Molecule": "COc1cccc(C2c3cc4c(cc3OC(N3CCCC3)C2C)OCO4)c1O (stereo unspecified)", "System": "NCI-H226 lung", "Measured Property": "TGI", "Result": "35.6 µM"}
{"Molecule": "O=c1c(=O)c2c(Br)sc(Br)c2c1=O", "System": "NCI-H226 lung", "Measured Property": "TGI", "Result": "> 100 µM"}
{"Molecule": "CC1=NN(C(=O)c2ccc([N+](=O)[O-])cc2)C(=O)C1N=Nc1ccccc1C(=O)O (stereo unspecified)", "System": "NCI-H226 lung", "Measured Property": "TGI", "Result": "> 100 µM"}

The measured values listed here are drawn from PubChem BioAssay (NCI).
